Target: JAK3 (Homo sapiens, UniProt P52333)
Construct: made in house; host or cells: SF9 insect cells (baculovirus)
Sequence (P52333 783-1124): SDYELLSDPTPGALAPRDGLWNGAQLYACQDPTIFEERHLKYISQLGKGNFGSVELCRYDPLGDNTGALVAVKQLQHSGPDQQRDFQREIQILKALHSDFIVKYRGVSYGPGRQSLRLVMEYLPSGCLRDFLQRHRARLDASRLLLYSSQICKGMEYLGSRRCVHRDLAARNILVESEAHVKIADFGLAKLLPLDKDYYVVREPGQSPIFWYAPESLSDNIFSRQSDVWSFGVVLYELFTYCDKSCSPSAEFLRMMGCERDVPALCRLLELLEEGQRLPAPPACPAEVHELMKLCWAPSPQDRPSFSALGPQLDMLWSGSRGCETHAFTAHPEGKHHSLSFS
Assay: JAK3 inhibition (Table 4)
Format: biochemical
Conditions: read-out: JAK3 Ki
Structures can show the parent of a compound that is named as a salt.
readoutType: Ki (µM)
Give bare numbers, in µM.

Solved cases (5 shown):
compound="CC(C)(C)OC(=O)N[C@H]1CC[C@@H](n2cnc3cnc4[nH]ccc4c32)CC1 [Example 288]" testedtarget="JAK3 (Homo sapiens, UniProt P52333)" numericvalue=0.206
compound="CC(C)(C)OC(=O)NC1CCCC(n2cnc3cnc4[nH]ccc4c32)C1 (single isomer, unassigned) [Example 474]" testedtarget="JAK3 (Homo sapiens, UniProt P52333)" numericvalue=0.0196
compound="Cc1nc2cnc3[nH]ccc3c2n1[C@H]1CC[C@H](N2CCNC2=O)CC1 [Example 598, formic acid salt]" testedtarget="JAK3 (Homo sapiens, UniProt P52333)" numericvalue=0.0121
compound="CCN1CC[C@@H](n2c(CNS(C)(=O)=O)nc3cnc4[nH]ccc4c32)[C@@H](F)C1 [Example 909]" testedtarget="JAK3 (Homo sapiens, UniProt P52333)" numericvalue=0.213
compound="CC(C)(O)c1nc2cnc3[nH]ccc3c2n1C1CCN(Cc2ccccc2)CC1 [Example 171]" testedtarget="JAK3 (Homo sapiens, UniProt P52333)" numericvalue=0.103

For every item below, please supply its Ki.
1. C[C@@H](O)c1nc2cnc3[nH]ccc3c2n1[C@@H]1CCCN(CCC#N)C1 [Example 663]
2. c1ccc(CN2[C@@H]3CC[C@H]2C[C@H](n2cnc4cnc5[nH]ccc5c42)C3)cc1 [Example 81]
3. O=C(NC1CCC(n2cnc3cnc4[nH]ccc4c32)CC1)c1cccnc1 (centres unmarked) [Example 884]
4. N#C[C@H]1CC[C@H](n2c(CO)nc3cnc4[nH]ccc4c32)CC1 [Example 642]
5. CC1CCCCC1n1c(CNS(C)(=O)=O)nc2cnc3[nH]ccc3c21 (centres unmarked) [Example 917]
6. C[C@@H](O)c1nc2cnc3[nH]ccc3c2n1[C@@H]1CCCN(C(=O)C2CCOCC2)C1 [Example 783]
7. CCN1CCC(n2c(CNS(C)(=O)=O)nc3cnc4[nH]ccc4c32)C(F)(F)C1 (centres unmarked) [Example 915]
8. OCC(O)c1nc2cnc3[nH]ccc3c2n1C1CCCCC1 (racemic) [Example 853]

**Result**
1. 0.188
2. 0.297
3. 0.0863
4. 0.185
5. 0.065
6. 2.66
7. 0.0222
8. 0.0204

// each listed compound needs a value for Ki
1. c1cc2c(ncc3ncn([C@@H]4CCCNC4)c32)[nH]1 [Example 2]
2. CC(CC#N)N1CCC(n2c(CN3CCCC3=O)nc3cnc4[nH]ccc4c32)CC1 (racemic) [Example 399]
3. Cc1ccnn1CCc1nc2cnc3[nH]ccc3c2n1C1CCN(CCC#N)CC1 [Example 410]
4. Cc1nc2cnc3[nH]ccc3c2n1C1(C)CCN(S(=O)(=O)c2cccnc2)CC1 [Example 740]

**Result**
[0.913, 0.125, 0.244, 0.404]

###

Molecular target: JAK2 (Homo sapiens, UniProt O60674)
Construct: made in house; host or cells: SF9 insect cells (baculovirus)
Sequence (O60674 812-1132): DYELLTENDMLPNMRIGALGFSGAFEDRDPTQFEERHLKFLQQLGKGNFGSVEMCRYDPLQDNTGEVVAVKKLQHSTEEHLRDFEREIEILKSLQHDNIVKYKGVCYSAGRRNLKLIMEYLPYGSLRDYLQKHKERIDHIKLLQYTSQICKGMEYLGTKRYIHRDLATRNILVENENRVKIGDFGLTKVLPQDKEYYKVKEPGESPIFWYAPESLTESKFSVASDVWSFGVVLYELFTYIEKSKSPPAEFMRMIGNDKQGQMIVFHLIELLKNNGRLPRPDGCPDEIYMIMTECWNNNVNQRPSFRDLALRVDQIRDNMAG
Assay: JAK2 inhibition (Table 4)
Type: biochemical
Conditions: read-out: JAK2 Ki
readoutType: Ki (nM)
One number for each entry, in nM.

Could you tell me Ki for each of these compounds? They are listed below.
1. CCS(=O)(=O)NCCc1nc2cnc3[nH]ccc3c2n1C1CCCCC1 [Example 512]
2. N#CCCN1CCC[C@@H](n2cnc3cnc4[nH]ccc4c32)C1 [Example 10]
3. CC(O)c1nc2cnc3[nH]ccc3c2n1C1CCCN(C(=O)C2CC2C)C1 (stereo not drawn) [Example 796]

**Result**
1. 28.3
2. 21.7
3. 746

###

Molecular target: JAK2 (Homo sapiens, UniProt O60674)
Construct: made in house; host or cells: SF9 insect cells (baculovirus)
Assay: JAK2 inhibition (Table 4)
Assay type: biochemical
Details: read-out: JAK2 Ki
pKi: −log10 of the molar value.
Short version: pKi at least 7 is label 1, less is label 0.

Study these solved cases before continuing.
compound="CC(CC#N)N1CCC(n2c(C3CCOCC3)nc3cnc4[nH]ccc4c32)CC1 (racemic) [Example 393]" classassignment="label 1"
compound="Cc1nc2cnc3[nH]ccc3c2n1C1CCN(CC(O)(C(F)(F)F)C(F)(F)F)CC1 [Example 354]" classassignment="label 1"
compound="OC1CCCC(n2cnc3cnc4[nH]ccc4c32)C1 (single isomer, unassigned) [Example 560]" classassignment="label 1"
compound="COCC(=O)NC1CCC(n2cnc3cnc4[nH]ccc4c32)CC1 (centres unmarked) [Example 887]" classassignment="label 1"
compound="CC(C)(C)OC(=O)N1CCC[C@@H]1C(=O)N1CCC(n2cnc3cnc4[nH]ccc4c32)CC1 [Example 242]" classassignment="label 0"
compound="c1cc2c(ncc3ncn(C4CCOCC4)c32)[nH]1 [Example 468]" classassignment="label 1"

**Query** Could you tell me if the measured pKi of CS(=O)(=O)NCc1nc2cnc3[nH]ccc3c2n1C1CC2CCC1O2 (single isomer, unassigned) [Example 849] reaches 7 or more?
**Result** label 0

###

Biological target: JAK1 (Homo sapiens)
Construct: made in house; host or cells: SF9 insect cells (baculovirus)
Sequence (P23458 852-1154): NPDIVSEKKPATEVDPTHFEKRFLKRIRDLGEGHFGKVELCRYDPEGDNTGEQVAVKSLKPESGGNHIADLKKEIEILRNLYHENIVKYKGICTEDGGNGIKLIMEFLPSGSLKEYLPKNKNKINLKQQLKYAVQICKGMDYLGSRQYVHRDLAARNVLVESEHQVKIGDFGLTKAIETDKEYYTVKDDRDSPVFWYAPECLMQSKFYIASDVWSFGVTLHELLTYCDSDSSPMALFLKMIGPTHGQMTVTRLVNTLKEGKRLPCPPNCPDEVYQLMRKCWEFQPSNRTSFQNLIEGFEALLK
Assay: JAK1 inhibition (Table 4)
Format: biochemical
Conditions: read-out: JAK1 Ki
pKi: −log10 of the molar value.
Mark no for pKi values under 8, and yes for everything at or above.

These solved cases illustrate the format of a correct answer.
compound=CC(C)OCCOCc1nc2cnc3[nH]ccc3c2n1C1CCN(CCC#N)CC1 classassignment=no
compound=CC(=O)N[C@H]1CC[C@H](n2cnc3cnc4[nH]ccc4c32)CC1 classassignment=yes
compound=CC(C)(O)c1nc2cnc3[nH]ccc3c2n1C1CCN(CCC#N)CC1 classassignment=no

Consider the additional compound presented here.
**Query** Entry Cc1nc2cnc3[nH]ccc3c2n1C1CCN(Cc2ccccc2)CC1(F)F (racemic) : is its pKi no less than 8?
**Result** yes

###

Target: JAK3 (Homo sapiens, UniProt P52333)
Construct: made in house; host or cells: SF9 insect cells (baculovirus)
Experiment: JAK3 inhibition (Table 4)
Format: biochemical
Settings: read-out: JAK3 Ki
For each of the compounds below, state its pKi.
One number for each entry, as −log10 of the molar value.

Here's what some known entries look like.
compound="CC(O)c1nc2cnc3[nH]ccc3c2n1C1CCCN(C(=O)C2CCOC2)C1 (stereo not shown)" testedtarget="JAK3 (Homo sapiens, UniProt P52333)" numericvalue=5.95
compound=N[C@H]1CC[C@H](n2cnc3cnc4[nH]ccc4c32)CC1 testedtarget="JAK3 (Homo sapiens, UniProt P52333)" numericvalue=7.46
compound="CC1CC(n2cnc3cnc4[nH]ccc4c32)CCN1 (racemic) [Example 230]" testedtarget="JAK3 (Homo sapiens, UniProt P52333)" numericvalue=6.37
compound=CC(C)(C)OC(=O)N[C@H]1CC[C@@H](n2cnc3cnc4[nH]ccc4c32)C1 testedtarget="JAK3 (Homo sapiens, UniProt P52333)" numericvalue=6.54
compound=CN(C)CC(=O)N1CCC[C@@H](n2cnc3cnc4[nH]ccc4c32)C1 testedtarget="JAK3 (Homo sapiens, UniProt P52333)" numericvalue=5.74
compound=C[C@@H](O)c1nc2cnc3[nH]ccc3c2n1[C@@H]1CCCN(C(=O)C2CCC2)C1 testedtarget="JAK3 (Homo sapiens, UniProt P52333)" numericvalue=5.97

Parameters: items (list). Returns: pKi for each item.
1. CC(O)c1nc2cnc3[nH]ccc3c2n1C1CCN(S(C)(=O)=O)CC1 (racemic)
2. CCC(=O)N1CCC[C@@H](n2c([C@@H](C)O)nc3cnc4[nH]ccc4c32)C1

**Result**
1. 6.72
2. 5.86

For every listed record, write down its pKi.
1. Cc1nc2cnc3[nH]ccc3c2n1C1CCN(CC(O)(C(F)(F)F)C(F)(F)F)CC1
2. CS(=O)(=O)NCc1nc2cnc3[nH]ccc3c2n1C1CCN(Cc2ccccc2)CC1(F)F (racemic)
3. C[C@@H](O)c1nc2cnc3[nH]ccc3c2n1C1CCN(Cc2ncccc2F)CC1

**Result**
1. 6.92
2. 7.92
3. 7.51

Dear colleague, could you please provide pKi for the compounds listed below?
1. CC(C)(C)OC(=O)N1CCC[C@H]1C(=O)N1CCC(n2cnc3cnc4[nH]ccc4c32)CC1
2. CN1CCC[C@@H]1C(=O)N1CCC(n2cnc3cnc4[nH]ccc4c32)CC1
3. C[C@@H](O)c1nc2cnc3[nH]ccc3c2n1C1CCN(Cc2ccnn2C)CC1
4. NC(=O)Cc1nc2cnc3[nH]ccc3c2n1C1CCN(S(=O)(=O)C2CC2)CC1
5. CC(O)c1nc2cnc3[nH]ccc3c2n1C1CCN(Cc2ccnc(C#N)c2)CC1 (racemic)
6. Cc1nc2cnc3[nH]ccc3c2n1C1CCC(NC(=O)N(C)CC(F)(F)F)CC1 (stereo not shown)
7. O=C(CO)N1CCC(n2cnc3cnc4[nH]ccc4c32)CC1
8. CC(=O)NC1CCCC(n2cnc3cnc4[nH]ccc4c32)C1 (single isomer, unassigned) [Example 478]

**Result**
[5.45, 5.89, 7.35, 6.27, 6.75, 8.05, 6.81, 6.28]
